pIC50: −log10 of the molar value.
Consider compounds characterized by their pIC50 with panel of kinases (Homo sapiens, UniProt P51813).
Sequence (P51813 whole entry): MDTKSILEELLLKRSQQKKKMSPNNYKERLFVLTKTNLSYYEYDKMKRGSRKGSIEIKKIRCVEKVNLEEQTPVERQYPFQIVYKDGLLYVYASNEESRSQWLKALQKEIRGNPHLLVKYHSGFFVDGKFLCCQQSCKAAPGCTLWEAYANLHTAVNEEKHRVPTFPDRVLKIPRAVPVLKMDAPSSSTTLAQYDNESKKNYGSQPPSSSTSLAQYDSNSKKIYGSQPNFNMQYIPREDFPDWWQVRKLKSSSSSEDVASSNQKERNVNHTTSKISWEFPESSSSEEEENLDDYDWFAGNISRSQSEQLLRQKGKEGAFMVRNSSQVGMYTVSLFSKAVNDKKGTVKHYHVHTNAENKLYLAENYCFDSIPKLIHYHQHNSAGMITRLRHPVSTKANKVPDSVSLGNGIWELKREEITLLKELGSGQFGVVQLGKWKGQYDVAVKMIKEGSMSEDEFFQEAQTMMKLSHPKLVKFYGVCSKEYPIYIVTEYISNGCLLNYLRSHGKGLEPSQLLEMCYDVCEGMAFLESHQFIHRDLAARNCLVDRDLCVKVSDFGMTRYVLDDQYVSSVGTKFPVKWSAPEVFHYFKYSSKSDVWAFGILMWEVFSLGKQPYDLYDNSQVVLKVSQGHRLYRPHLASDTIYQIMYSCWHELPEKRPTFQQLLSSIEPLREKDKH
Measured endpoint: pIC50

Below are worked cases with known answers.
[[record]]
compound = "CN(C)C(=O)N1CC[C@@H](Nc2n[nH]c3nccc(-c4ccc(CNC(=O)c5coc(C6CC6)n5)c(F)c4)c23)C1 [Example 329]"
result = 5.23

[[record]]
compound = "C=CC(=O)N1CC[C@@H](Oc2n[nH]c3nccc(-c4ccc(CNC(=O)c5noc(C(C)(C)C)n5)c(F)c4)c23)C1 [Example 272]"
result = 7.41

[[record]]
compound = "CC(C)(C)n1cc(C(=O)NCc2ccc(-c3ccnc4[nH]nc(N[C@@H]5CCNC5)c34)cc2F)cn1 [Example 76]"
result = 5.08

[[record]]
compound = "CC(=O)N[C@@H]1CCN(c2n[nH]c3nccc(-c4ccc(CNC(=O)c5nc(C(C)(C)C)no5)c(F)c4)c23)C1 [Example 373]"
result = 7.44

[[record]]
compound = "CC(C)(C)c1ccc(C(=O)NCc2ccc(-c3ccnc4[nH]nc(N5CC[C@@H](N)C5)c34)cc2F)cc1 [Example 100]"
result = 5.72


a: C=CC(=O)N1CC[C@@H](Nc2n[nH]c3nccc(-c4ccc(CNC(=O)c5cn6ccccc6n5)c(F)c4)c23)C1 [Example 377]
b: C[C@@H](NC(=O)c1nc(C(C)(C)C)no1)c1ccc(-c2ccnc3[nH]nc(NC4CCCC4)c23)cc1 [Example 201]
c: C=CC(=O)N1CC[C@@H](Nc2n[nH]c3nccc(-c4ccc(CNC(=O)c5ccc6sc(C)nc6c5)c(F)c4)c23)C1 [Example 378]
d: C=CC(=O)N1CC[C@@H](Nc2n[nH]c3nccc(-c4ccc(CNC(=O)c5cc(Cl)on5)c(F)c4)c23)C1 [Example 342]
e: CC(C)(C)c1nc(C(=O)NCc2ccc(-c3ccnc4[nH]nc(N[C@H]5CC[C@@H](N)CC5)c34)cc2F)no1 [Example 153]
Request: Rank entries according to their pIC50, from the largest number down. Output spec: labels arranged per the requested ranking.
Result: d, c, a, e, b
(d: 7.54, c: 7.16, a: 6.88, e: 5.70, b: 5.17)

1: CC(C)(C)c1nc(C(=O)NCc2ccc(-c3ccnc4[nH]nc(C5CCNC5)c34)cc2F)no1 (stereo not drawn) [Example 278]
2: C=CC(=O)N1CC[C@@H](Nc2n[nH]c3nccc(-c4ccc(CNC(=O)c5noc(C(C)(C)C)n5)cc4)c23)C1 [Example 175]
3: Cc1nc(C(=O)NCc2ccc(-c3ccnc4[nH]nc(N[C@@H]5CC[C@H](C)N(C(=O)N(C)C)C5)c34)cc2F)oc1C [Example 194]
4: C=CC(=O)N1CC[C@@H](Nc2n[nH]c3nccc(-c4ccc(CNC(=O)c5nn6c(c5C)OCCC6)c(F)c4)c23)C1 [Example 376]
5: C=CC(=O)N1CC[C@@H](Nc2n[nH]c3nccc(-c4ccnc(N5CCn6c(cc7c6CC(C)(C)C7)C5=O)c4C=O)c23)C1 [Example 286]
Request: List from greatest to least pIC50. Present the labels in the sequence the task asks for.
Result: 4, 2, 5, 3, 1
(4: 6.94, 2: 6.70, 5: 5.82, 3: 5.31, 1: 5.10)

A: C[C@@H](NC(=O)c1nc(C(C)(C)C)no1)c1ccc(-c2ccnc3[nH]nc(NC4CCN(S(C)(=O)=O)C4)c23)cc1 (stereo partly drawn) [Example 386]
B: CC(C)(C)c1nc(C(=O)NCc2ccc(-c3ccnc4[nH]nc(N5CCC[C@H](C(=O)O)C5)c34)cc2F)no1 [Example 252]
C: C[C@@H](NC(=O)c1cc(C(C)(C)O)on1)c1ccc(-c2ccnc3[nH]nc(NC4CCCC4)c23)cc1 [Example 397]
Request: rank_up(items): orders items by reported pIC50 in ascending numerical order. State the ranking by listing the labels in the requested order.
Result: A, C, B
(A: 5.16, C: 5.47, B: 6.28)
